Where do these numbers come from? They come from paper PMC3863386.

- measured on: LsrR (Escherichia coli, UniProt P76141)
- Sequence (P76141 whole entry): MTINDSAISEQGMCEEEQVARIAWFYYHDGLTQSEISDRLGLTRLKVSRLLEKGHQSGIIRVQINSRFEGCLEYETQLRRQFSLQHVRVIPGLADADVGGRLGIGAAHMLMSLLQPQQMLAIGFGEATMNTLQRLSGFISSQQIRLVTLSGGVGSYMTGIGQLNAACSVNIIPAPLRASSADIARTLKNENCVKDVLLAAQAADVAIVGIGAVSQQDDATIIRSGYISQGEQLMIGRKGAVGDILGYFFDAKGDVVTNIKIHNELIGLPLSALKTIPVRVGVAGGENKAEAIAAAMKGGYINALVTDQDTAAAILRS
- test parameters: read-out: LsrR-binding affinity (Kd), approximate; rounded summary value
reported property: Kd

Entry under test: CC(=O)C(=O)[C@@H](O)COP(=O)(O)O [D5P, phospho-DPD] . Its Kd was ~2000 nM
